Reference for the values: PubChem BioAssay (NCI)

# testProtocol: NCI Yeast Anticancer Drug Screen. Data for the rad14 strain (AID 159);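 also: 0% = growth of vehicle-treated control cultures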
# experimentalConditions: S. cerevisiae rad14 strain growth inhibition; at 33.0 µM; hits give high values
# Procedure: Growth inhibition of yeast strains with defined genetic alterations is measured as a screen for potential anti-cancer activity. Selected strains with alterations in DNA damage repair or cell cycle control were exposed to compounds and growth inhibition was measured relative to vehicle treated controls. The strain used in this assay is rad14
The panel holds about 79,000 compounds, 15% with a hit somewhere; the sample as a whole holds those more often.
We begin with a simple list: items and their reported growth inhibition.
assayMetric: growth inhibition (%)

INSERT INTO measurements (molecule, unitabbrev, assayresult) VALUES
  ('Cc1ccc2[nH]c3c(C)c4cc[n+](C)cc4c(C)c3c2c1', '%', 41),
  ('Oc1c(Br)cc(Br)cc1C1CCCCC1', '%', 97),
  ('C=CCC1=C(C)C(OC(=O)/C=C/c2ccccc2)CC1=O (configuration not stated)', '%', 5),
  ('O=C(O)C1CCCCC1c1c2ccc(=O)c(O)c-2oc2c(O)c(O)ccc12 (configuration not stated)', '%', 19),
  ('CNC(=O)OCc1c(COC(=O)NC)c(-c2ccc(Cl)c(Cl)c2)n2c1CCC2', '%', 98),
  ('O=c1c2ccccc2ncn1COCc1ccccc1', '%', -6),
  ('CCC[CH2][Ge]([CH2]CCC)([CH2]CCC)[O]C(=O)C(OC)c1ccccc1 (configuration not stated)', '%', 26),
  ('COc1ccc(-c2cn(-c3ccc(I)cc3)c3ncnc(N)c23)cc1', '%', -8),
  ('CCCCCCCCCCCCCCCCCCOCC(O)COP(=O)(O)OCC1OC(n2cc(F)c(=O)[nH]c2=O)CC1O (configuration not stated)', '%', 63),
  ('CCN(CC)CCN1C(=O)c2cccc3cc(OC)cc(c23)C1=O', '%', -6),
  ('CC(C)[N+]([O-])(CCCNc1c2ccccc2nc2cccc([N+](=O)[O-])c12)C(C)C', '%', 99),
  ('O=C(Nc1ccccc1)OCCc1ccc(Cl)c(Cl)c1', '%', 31),
  ('COc1ccc2c(c1)C(=O)c1ccccc1C2', '%', 6),
  ('Cc1ccc(C2C(Cl)C(=O)N2n2cnc3ccccc3c2=O)cc1 (configuration not stated)', '%', -12),
  ('CC(=O)OCCOCNC(=S)N/N=C(\C)c1cnccn1', '%', 46),
  ('Cc1cccc2c(C(O)CBr)cc(-c3ccc(Cl)cc3)nc12 (configuration not stated)', '%', 97),
  ('Cc1ccc(NC(=O)/C(Cl)=C(\Cl)C(=O)O)cc1C', '%', 99),
  ('O=C1Nc2ccccc2/C1=C/COc1ccccc1', '%', 97),
  ('Cc1cc(S(=O)(=O)/N=C(/NN)NNc2cccc(C(F)(F)F)n2)c(S)cc1Cl', '%', -1),
  ('COc1cc2ccc(/C=C\[N+](=O)[O-])cc2cc1OC', '%', 97),
  ('CCN(CC)[P+](c1ccccc1O)(N(CC)CC)N(CC)CC', '%', 32),
  ('Brc1ccc(-c2cc3c(cc2C2SCCS2)OCO3)cc1', '%', -7),
  ('CCCS(=O)(=O)Nc1ccc(Nc2c3ccccc3nc3ccccc23)c(OC)c1', '%', -16),
  ('CN(Cc1cnc2nc(N)nc(N)c2n1)c1ccc(C(=O)N[C@@H](CCC(=O)O)C(=O)O)cc1', '%', 14),
  ('O=C1C2C=CC1C1C(=O)OC(=O)C21 (configuration not stated)', '%', -48),
  ('O=C(CC(=O)n1nc(-c2ccccc2)c(N=Nc2ccccc2C(=O)O)c1-c1ccccc1)Nc1ccc(Cl)cc1', '%', 3),
  ('CC/C(=C(\c1ccccc1)c1ccc(OCCN(C)C)cc1)c1ccccc1', '%', 97),
  ('Cc1ccc(S(=O)(=O)NNC(=S)Nc2cccc3ccccc23)cc1', '%', -4),
  ('O=[N+]([O-])c1cccc([N+](=O)[O-])c1S(=O)(=O)c1ccccc1', '%', 92),
  ('CN(C)c1nc2sc3c(c2c(=O)o1)CCCC3', '%', 27),
  ('CC1CCN(CCC(=O)c2ccc(Cl)cc2)CC1', '%', 39),
  ('Cc1ccc(S(=O)(=O)NC(=O)NC2=NC(C)(C)N(c3ccc(Cl)c(Cl)c3)C(N)=N2)cc1', '%', 1),
  ('COc1cc(C(=O)/C=C/c2ccccc2O)ccc1O', '%', 98),
  ('CC(C)C1=CC2=C[C@H](O)[C@H]3C(C)(C)CCC[C@]3(C)C2=C(O)C1=O', '%', 99),
  ('CCC/C(Cl)=N\OC(=O)Nc1ccc(Br)cc1', '%', 98),
  ('O=C(N=Nc1cc(Cl)ccc1Cl)NNc1cc(Cl)ccc1Cl', '%', 2),
  ('c1ccc2c(c1)-c1nc3ccccc3cc1C2N1CCOCC1 (configuration not stated)', '%', -4),
  ('BrCC[P+](c1ccccc1)(c1ccccc1)c1ccccc1', '%', 94),
  ('Cc1ccc(Cl)c2[nH]c(-c3ccccc3)cc(=O)c12', '%', -12),
  ('Cc1ccc2ccc3cccc4ccc1c2c34', '%', 14),
  ('CCC(=O)Oc1c(Cl)cc(Cl)c2ccccc12', '%', 9),
  ('CCCCCCCCCCC(=O)Cl', '%', 39),
  ('C/C(=N\NC(=S)N1CCCCC1)c1cccc(C)n1', '%', 100),
  ('COC(=O)C1=C(C)NC(C)=C(C(=O)OC)C1c1cccc(/[N+]([O-])=C/c2ccccc2)c1', '%', 34),
  ('CCCCCCCCCCCCCCCCCCNC', '%', -9),
  ('CCCCCCCCCCCC(=O)N(C)C', '%', 34),
  ('COc1cc(C2c3cc4c(cc3OC(NNc3ccccc3)C2C)OCO4)cc(OC)c1OC (configuration not stated)', '%', 52);

###

We begin with a simple list: items and their reported growth inhibition.
# testProtocol: NCI Yeast Anticancer Drug Screen. Data for the CLN2oe strain (AID 163);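 also: 0% = growth of vehicle-only control cultures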
# experimentalConditions: S. cerevisiae CLN2oe strain, at 1.2 µM, hits give high values
Compounds without any hit were thinned out: in the full panel of roughly 79,000, 15% have a hit.
assayMetric: growth inhibition (%)

INSERT INTO results (compound, assaymetric, assayresult) VALUES
  ('Fc1ccc(NC(=S)SCc2ccc3c(c2)OCO3)cc1F', 'growth inhibition', 8),
  ('COc1cc2c(c(OC)c1OC)-c1c(cc3c(c1OC)OCO3)CC(C)C(C)(O)C2OC(=O)c1ccccc1 (centres undefined)', 'growth inhibition', 27),
  ('CN(C)c1ccc(Sc2ccc3nc(N)nc(N)c3c2)cc1', 'growth inhibition', 17),
  ('Cc1ccc2[nH]c3c(C)c4cc[n+](C)cc4c(C)c3c2c1', 'growth inhibition', 42),
  ('CC(C)C1=CC2=C[C@H](O)[C@H]3C(C)(C)CCC[C@]3(C)C2=C(O)C1=O', 'growth inhibition', -4),
  ('COc1cc(CC2CC(c3ccc4c(c3)OCO4)OC2=O)cc(OC)c1OC (centres undefined)', 'growth inhibition', 2),
  ('N#CN1C2CCC1CC(=O)C2', 'growth inhibition', 12),
  ('CCCCCCCCCCCCCCC(C(=O)[O-])[n+]1ccccc1 (centres undefined)', 'growth inhibition', 3),
  ('CC(C(=O)N1C(=O)N(C(=O)[C@H](C)C(O)c2ccccc2)[C@H](c2ccccc2)[C@H]1c1ccccc1)[C@@H](O)c1ccccc1 (some centres undefined)', 'growth inhibition', -11),
  ('CC1(C)C(=O)OC(n2cc(F)c(=O)[nH]c2=O)C1=O (centres undefined)', 'growth inhibition', 12),
  ('O=C1C2CC[C@@H]3C(=O)C(Cl)(Cl)[C@@H]3CCC2C1(Cl)Cl (some centres undefined)', 'growth inhibition', 3),
  ('Cc1cc2c(cc1C(=O)CCC(=O)O)CC1(C2)Cc2cc(C)c(C(=O)CCC(=O)O)cc2C1', 'growth inhibition', -5),
  ('COc1ccc(-c2cn(-c3ccc(I)cc3)c3ncnc(N)c23)cc1', 'growth inhibition', -7),
  ('c1ccc(-c2ccnc3c2ccc2c(-c4ccccc4)ccnc23)cc1', 'growth inhibition', -8),
  ('Cc1ccc2ccc(O)cc2c1', 'growth inhibition', -10),
  ('CCCCCCCCCCCCCC[N+](C)(CC(=O)[O-])Cc1ccccc1 (centres undefined)', 'growth inhibition', 5),
  ('CC1=C(SCCO)C(=O)c2ccccc2C1=O', 'growth inhibition', 0),
  ('Cc1cc(CO)c(O)c(CNCc2cc(C)cc(CO)c2O)c1', 'growth inhibition', -10),
  ('COc1ccc(O)c(/C=N\Nc2ccccc2)c1', 'growth inhibition', -8),
  ('COc1cc2c3c(cccc3c1)C(=O)N(CCN(C)C)C2=O', 'growth inhibition', -5),
  ('CCCCCCc1cc(C(=O)OC/C(C)=N/NC(N)=O)c2ccccc2n1', 'growth inhibition', -3),
  ('CCOP(=O)(OCC)C(Cc1ccccc1)N=C(c1ccccc1)c1ccccc1 (centres undefined)', 'growth inhibition', -50),
  ('CCC/C(Cl)=N\OC(=O)Nc1cccc(C(F)(F)F)c1', 'growth inhibition', 15),
  ('CC(C)(CN1CCCCC1)C(=O)CC(SCCS(=O)(=O)O)c1ccc(Br)cc1 (centres undefined)', 'growth inhibition', 2),
  ('COC(=O)C1=C(C)NC(C)=C(C(=O)OCCCN2CCC(c3ccccc3)(c3ccccc3)CC2)C1c1cccc([N+](=O)[O-])c1 (centres undefined)', 'growth inhibition', -3),
  ('COc1cc(C2c3cc4c(cc3OC(NNc3ccccc3)C2C)OCO4)cc(OC)c1OC (centres undefined)', 'growth inhibition', 41),
  ('c1ccc2c(c1)sc1cc3ccncc3cc12', 'growth inhibition', -2),
  ('O=C1C(=O)c2ccccc2C=C1[N+](=O)[O-]', 'growth inhibition', 2),
  ('COC1=CC(=O)C(C2(OC(C)C)OC(=O)C(Cl)=C2Cl)=CC1=O (centres undefined)', 'growth inhibition', 0),
  ('CCN(CC)C(C)(C)C(=O)/C=C/c1ccccc1', 'growth inhibition', -4),
  ('O=C(CC(=O)n1nc(-c2ccccc2)c(N=Nc2ccccc2C(=O)O)c1-c1ccccc1)Nc1ccc(Cl)cc1', 'growth inhibition', -4),
  ('S=C(Nc1ccc(Cl)c(Cl)c1)SCc1ccc2c(c1)OCO2', 'growth inhibition', -4),
  ('Fc1ccc(NC(=S)SCc2ccc(Cl)c(Cl)c2)cc1F', 'growth inhibition', -7),
  ('CC[C@@]1(O)C(=O)OCc2c1cc1n(c2=O)Cc2cc3c(N)cccc3nc2-1', 'growth inhibition', 25),
  ('O=C1CSc2cc([N+](=O)[O-])ccc2N1', 'growth inhibition', -3),
  ('C#CCCCc1ccccc1', 'growth inhibition', -7),
  ('O=C(O)c1cccc(-c2c3ccc(=O)cc-3oc3cc(O)ccc23)c1', 'growth inhibition', 11),
  ('CCOC(=O)C(NC(=O)c1ccccc1)(N1CCN(c2cc3c(cc2F)c(=O)c(C(=O)O)cn3C2CC2)CC1)C(F)(F)F (centres undefined)', 'growth inhibition', -1),
  ('C=C1CC(Cn2cc(Br)c(=O)[nH]c2=O)(c2ccc(-c3ccccc3)cc2)OC1=O (centres undefined)', 'growth inhibition', -2),
  ('CCCc1cc(C(=O)OCC)cc(CCC)c1O', 'growth inhibition', -1),
  ('CC(=O)Oc1ccc2c(c1)Cc1cc(N=C3C=CC(=O)O3)ccc1-2', 'growth inhibition', 2),
  ('CC(=O)[O][Bi]([c]1ccccc1)[c]1ccccc1', 'growth inhibition', 22),
  ('COc1ccc(/C=C2\SC(=S)N(/C=C/c3nc4ccccc4[nH]c3=O)C2=O)cc1OC', 'growth inhibition', -17),
  ('[N-]=[N+]=NC1=C(c2ccccn2)C(=O)c2cccc3cccc1c23', 'growth inhibition', -3);
